measured target: T1, SYNJ2BP, P57105
T1 sequence (P57105 8-110, limits assumed, looked up): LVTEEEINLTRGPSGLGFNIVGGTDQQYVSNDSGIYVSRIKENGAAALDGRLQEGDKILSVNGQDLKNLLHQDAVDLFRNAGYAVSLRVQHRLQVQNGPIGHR
test details: holdup assay
Parameters: key: below the threshold = too weak to quantify, mostly under pKd 3.1 to 4
cond: plain residues with an end cap or a label only (N-terminal biotin on a linker: ado-ado)
metric name: pKd
Please give the numeric answer without any surrounding text.

response.value for RQKEVRESKC [SCN8A, Q9UQD0] (field: pKd) = 4.23

Item: ARSAAASNYV [CLDN4, O14493] | pKd: 3.85

Entry ILRKSTTTTV [PRR16, Q569H4] , pKd reported as 4.2

get_value(item= GIKKITSTAL [RPS6KA3, P51812] , readout=pKd) returns 4.52

Lab note: measured pKd of LESTTVGTSV [KARS1, Q15046] was 5.44

# pKd of RFQQRMQTHV [KIRREL1, Q96J84] = 4.61

Entry ARESQKVSHV [FAM110B, Q8TC76] — recorded pKd = 4.31

Field pKd (entry PPGKHLVTEV [KCNA7, Q96RP8] ) reads 4.86

Briefly, pKd measured for ARGPPRESEV [FAM110D, Q8TAY7] : 5.35
